# ASSAY SYSTEM: Human GLP-1 receptor (Homo sapiens)
# Construct: expressed in transfected cells
# Sequence (P43220 24-463): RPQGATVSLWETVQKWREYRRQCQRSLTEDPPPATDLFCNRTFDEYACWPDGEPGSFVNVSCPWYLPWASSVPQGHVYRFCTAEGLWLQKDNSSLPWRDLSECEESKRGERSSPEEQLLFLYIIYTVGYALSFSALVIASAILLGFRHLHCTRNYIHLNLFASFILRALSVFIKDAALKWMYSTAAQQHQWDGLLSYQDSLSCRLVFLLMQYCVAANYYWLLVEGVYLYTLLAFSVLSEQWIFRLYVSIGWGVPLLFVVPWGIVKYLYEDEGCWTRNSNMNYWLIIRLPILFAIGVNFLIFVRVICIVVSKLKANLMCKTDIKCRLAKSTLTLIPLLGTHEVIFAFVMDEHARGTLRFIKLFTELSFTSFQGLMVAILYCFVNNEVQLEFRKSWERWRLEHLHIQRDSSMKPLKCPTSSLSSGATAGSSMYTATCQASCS
# MEASUREMENT NOTES: Measurement of GLP-1 receptor agonist activity (cAMP assay)
# Assay type: cell-based
# APPLIED CONDITIONS: hGLP-1R/CHO-K1 cells, cAMP increase, 37° C. 1 hour
Entries and their measured EC50 follow.
Give the value, in units of nM, as a plain number.

The cases that follow already have their EC50 on record.
State the recorded EC50 for this entry: O=C(O)c1ccc2nc(CN3CCc4cc(C(F)(F)F)c(OCc5ccc(Cl)cc5F)cc4C3)n(C[C@@H]3CCO3)c2n1
6.35

# lookup: EC50 of O=C(O)c1ccc2nc(CN3CCc4nc(C(F)(F)F)c(OCc5ccc(Cl)cc5F)cc4C3)n(C[C@@H]3CCO3)c2c1
11.6

API: the following record is the query input.
Look up EC50 for this compound: O=C(O)c1ccc2nc(CN3CCc4cc(C(F)(F)F)c(OCc5ccc(C(F)F)cc5)cc4C3)n(C[C@@H]3CCO3)c2c1
7.66
